- System: SB.mhdgc-1
- procedure.summary: area under the dose-response curve of % viability (trapezoidal, 11 doses) (% viability x log10 concentration); higher = less cytotoxic
- test.settings: SB.mhdgc-1 (hereditary c.1380delA CDH1 gastric cancer)
metric.name: area under the dose-response curve

>  <compound>
NC1=C(Cl)C(=CC=N1)OC2=C(F)C=C(NC(=O)\C3=C\N\C=C(C3=O)\C4=CC=C(F)C=C4)C=C2 (top concentration 46.0829 µM)

>  <metric.name>
area under the dose-response curve

>  <reported>
413

$$$$
>  <compound>
C[N]1C=C(C2=C1C=CC=C2)\C3=C(\C(=O)NC3=O)C4=C5CC(CN)CC[N]5C6=C4C=CC=C6 (stereo unspecified) [Ro-31-8425] (top concentration 46.0829 µM)

>  <metric.name>
area under the dose-response curve

>  <reported>
364

$$$$
>  <compound>
O=C1NC(O)CCN1[C@@H]1O[C@H](CO)[C@@H](O)[C@H]1O (stereo partly specified) [Tetrahydrouridine] (top concentration 46.0829 µM)

>  <metric.name>
area under the dose-response curve

>  <reported>
546

$$$$
>  <compound>
Cc1cc(/C=c2/sc3nc4ccccc4n3c2=O)c(C)n1-c1ccccc1 [ITX3] (top concentration 46.0829 µM)

>  <metric.name>
area under the dose-response curve

>  <reported>
590

$$$$
>  <compound>
CC(C)(C)OC(=O)CN(Cc1ccc(Cl)cc1)Cc1ccc([N+](=O)[O-])s1 [GSK-4112] (top concentration 46.0829 µM)

>  <metric.name>
area under the dose-response curve

>  <reported>
515

$$$$
>  <compound>
Nc1cc(N2CCCCC2)nc(N)[n+]1[O-] [Minoxidil] (top concentration 46.0829 µM)

>  <metric.name>
area under the dose-response curve

>  <reported>
507

$$$$

====

- Test system: SB.mhdgc-1
- procedure.summary: AC50 for growth inhibition (viability) (log10 M); higher = less potent
- test.settings: SB.mhdgc-1 (hereditary c.1380delA CDH1 gastric cancer)
The entries below come with measured AC50 for growth inhibition (log10 M) values attached.

>  <smiles.code>
COc1ccc(-c2ccc3ncc4c(c3c2)n(-c2ccc(N3CCNCC3)c(C(F)(F)F)c2)c(=O)n4C)cn1

>  <AC50 for growth inhibition (log10 M)>
-6.58

$$$$
>  <smiles.code>
COc1ccc(-n2c(C)c([N+](=O)[O-])c3ccc(O)cc32)cc1

>  <AC50 for growth inhibition (log10 M)>
-5.63

$$$$
>  <smiles.code>
COc1cc2nccc(Oc3ccc(NC(=O)NC4CC4)c(Cl)c3)c2cc1C(N)=O

>  <AC50 for growth inhibition (log10 M)>
-6.38

$$$$
>  <smiles.code>
C=CCc1ccc(O)c(-c2ccc(O)c(CC=C)c2)c1

>  <AC50 for growth inhibition (log10 M)>
-4.68

$$$$

====

- Tested on: SB.mhdgc-1
- procedure.summary: viability at highest tested concentration (MAXR) relative to DMSO; higher = less cytotoxic
- test.settings: SB.mhdgc-1 (hereditary c.1380delA CDH1 gastric cancer)
Assign labels as follows, please: met for viability below 90%; not met for viability equal to or exceeding 90%.

>  <molecule>
CC(=O)OCC(=O)[C@@]1(O)CC[C@H]2[C@@H]3CCC/4=C/C(=O)CC[C@]4(C)[C@H]3C(=O)C[C@]12C [Cortisone acetate] (top concentration 46.0829 µM)

>  <assigned.class>
not met

$$$$
>  <molecule>
CCCN[S+](=O)([O-])Nc1ncnc(OCCOc2ncc(Br)cn2)c1-c1ccc(Br)cc1 [Macitentan] (top concentration 46.0829 µM)

>  <assigned.class>
not met

$$$$
>  <molecule>
CCN(CC)CCCCNc1nc2cc(Cl)c(Cl)cc2nc1-c1ccc(-c2cccs2)s1 (top concentration 46.0829 µM)

>  <assigned.class>
met

$$$$
>  <molecule>
O=C1NC(=O)/C(=C/c2ccc3c(c2)OC(F)(F)O3)S1 (top concentration 46.0829 µM)

>  <assigned.class>
met

$$$$
>  <molecule>
N=C(N)Nc1ccc(C(=O)Oc2ccc3cc(C(=N)N)ccc3c2)cc1 [Nafamostat mesilate] (top concentration 46.0829 µM)

>  <assigned.class>
not met

$$$$
>  <molecule>
c1ccc(CNc2nc(NCc3ccccc3)c3ccccc3n2)cc1 (top concentration 46.0829 µM)

>  <assigned.class>
met

$$$$

Attribution: the supplement of paper PMC5412046
